- MEASURED ON: Nuclear receptor ROR-gamma (Mus musculus, UniProt P51450)
- Sequence (P51450 whole entry): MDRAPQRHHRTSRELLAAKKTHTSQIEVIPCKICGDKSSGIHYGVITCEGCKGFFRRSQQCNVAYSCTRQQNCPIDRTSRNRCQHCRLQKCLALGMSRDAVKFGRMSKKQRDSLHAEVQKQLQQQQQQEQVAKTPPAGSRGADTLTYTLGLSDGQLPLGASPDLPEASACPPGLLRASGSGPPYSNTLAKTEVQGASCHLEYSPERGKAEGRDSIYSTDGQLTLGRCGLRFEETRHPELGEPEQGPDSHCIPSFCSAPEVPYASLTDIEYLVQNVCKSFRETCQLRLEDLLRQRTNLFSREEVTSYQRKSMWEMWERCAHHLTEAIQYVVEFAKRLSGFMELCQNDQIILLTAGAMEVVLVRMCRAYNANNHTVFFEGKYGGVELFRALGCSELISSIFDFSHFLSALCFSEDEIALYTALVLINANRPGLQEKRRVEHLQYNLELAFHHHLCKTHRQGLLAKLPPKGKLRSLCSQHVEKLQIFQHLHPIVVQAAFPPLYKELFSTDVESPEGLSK
- METHOD: Inverse agonist activity at RORgammat in mouse whole blood assessed as reduction in IL-17a production
REPORTED METRIC: IC50 (nM)

Ask: Which IC50 is listed for `CC[C@H](NS(=O)(=O)c1ccc(-c2sc(-c3nnc(CC(C)(C)C(=O)O)o3)nc2CC2CCCC2)c(C(F)F)c1F)C(F)(F)F` ?
Result: 230

[1] CC[C@H](NS(=O)(=O)c1ccc(-c2sc(-c3nnc(CC(C)(C)C(=O)O)o3)nc2CC2CCCCC2)c(C(F)F)c1F)C(F)(F)F
[2] COC(C)(C)Cc1nc(-c2nnc(CC(C)(C)C(=O)O)o2)sc1-c1ccc(S(=O)(=O)N[C@@H](C)C(F)(F)F)c(F)c1C(F)F
Ask: Recorded IC50 values differ for 1 and 2 ; which one is higher? Give the label of your selection.
Result: 2
(2: 9000 nM, 1: 1540 nM)

====

- METHOD: Plasma concentration in mouse at 30 mg/kg, po measured after 0.5 hrs
- Type: ADME, organism-based
REPORTED METRIC: concentration at 0.5 h (µM)
# value in µM; strip the unit string

Ask: So what's the measured concentration at 0.5 h for this one? `CC[C@H](NS(=O)(=O)c1ccc(-c2sc(CC(C)(C)C(=O)O)nc2CC2CCC2)c(C(F)F)c1F)C(F)(F)F`
Result: 61.4

====

- METHOD: AUC in rat at 1000 mg/kg, po measured on day 1
- Type: ADME, organism-based
- CONDITION CONTEXT: in vivo
REPORTED METRIC: AUC (µg·h/mL)
Provide only the numeric value, understood in µg·h/mL.

Ask: Reported AUC, molecule `C[C@H](NS(=O)(=O)c1ccc(-c2sc(-c3nnc(C(C)(C)O)o3)nc2C(=O)N2CCC(F)(F)CC2)c(Cl)c1Cl)C(F)(F)F` : ____
Result: 274

====

- MEASURED ON: CYP3A4 (Homo sapiens, UniProt P08684)
- Sequence (P08684 whole entry): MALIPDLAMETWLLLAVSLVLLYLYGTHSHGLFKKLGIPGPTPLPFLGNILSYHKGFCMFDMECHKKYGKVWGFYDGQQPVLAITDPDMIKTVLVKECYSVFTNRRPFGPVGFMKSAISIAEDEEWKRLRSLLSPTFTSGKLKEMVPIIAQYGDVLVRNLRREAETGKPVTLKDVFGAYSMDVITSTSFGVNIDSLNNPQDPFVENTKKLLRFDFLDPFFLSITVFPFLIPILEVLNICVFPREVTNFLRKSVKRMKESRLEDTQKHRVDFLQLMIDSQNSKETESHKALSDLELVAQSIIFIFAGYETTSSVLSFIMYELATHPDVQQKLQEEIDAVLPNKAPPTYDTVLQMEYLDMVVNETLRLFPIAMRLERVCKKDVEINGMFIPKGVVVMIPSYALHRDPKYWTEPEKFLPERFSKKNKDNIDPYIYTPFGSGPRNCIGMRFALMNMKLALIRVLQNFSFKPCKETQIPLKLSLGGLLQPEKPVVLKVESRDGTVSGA
- METHOD: Inhibition of CYP3A4 (unknown origin) at 10 uM
- Type: ADME
REPORTED METRIC: inhibition at 10 µM (%)

[a] CC[C@H](NS(=O)(=O)c1ccc(-c2sc(CC(C)(C)C(=O)O)nc2CC2CCC2)c(C(F)F)c1F)C(F)(F)F
[b] C[C@H](NS(=O)(=O)c1ccc(-c2sc(-c3nnc(C(C)(C)O)o3)nc2C(=O)N2CCC(F)(F)CC2)c(Cl)c1Cl)C(F)(F)F
Ask: Lower value for measured inhibition at 10 µM? Options: a , b Give the chosen item's label as your response.
Result: a
